target: T1, human CD40 on cells (human, UniProt P25942 21-277); experiment: FACS, Raji cells
T1 construct: whole, on cells; The cell line used is named in each row's assay; also called hCD40; TNFRSF5
T1 sequence (P25942 21-277): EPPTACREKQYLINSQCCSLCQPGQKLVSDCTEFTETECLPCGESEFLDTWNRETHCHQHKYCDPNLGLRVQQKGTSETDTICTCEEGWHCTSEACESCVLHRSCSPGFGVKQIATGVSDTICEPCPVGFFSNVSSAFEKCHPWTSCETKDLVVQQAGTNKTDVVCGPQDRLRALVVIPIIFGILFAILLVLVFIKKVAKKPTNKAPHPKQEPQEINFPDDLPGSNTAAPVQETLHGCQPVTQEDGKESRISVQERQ
measure: EC50 (nM)
Form entry: value (nM) — number only.

binder	measure	measurement
PR006497 (antibody, human IgG1, kappa, V domains shown, PR003379 variant L:N92Y; human IgG1 L234A, L235A, G237A) VH: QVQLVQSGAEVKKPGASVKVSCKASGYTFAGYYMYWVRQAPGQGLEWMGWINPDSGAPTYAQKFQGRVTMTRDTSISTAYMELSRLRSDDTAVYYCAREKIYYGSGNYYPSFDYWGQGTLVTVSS VL: DIQLTQSPSFLSASVGDRVTITCRASQGISSYLAWYQQKPGKAPKLLIYAASTLQSGVPSRFSGSGSGTEFTLTISSLQPEDFATYYCQQLYSYPWTFGQGTKVEIKR	EC50	0.252

Data request: Record request: EC50 value, item PR006495 (antibody, human IgG1, kappa, V domains shown, PR003379 variant L:N92A; human IgG1 L234A, L235A, G237A) VH: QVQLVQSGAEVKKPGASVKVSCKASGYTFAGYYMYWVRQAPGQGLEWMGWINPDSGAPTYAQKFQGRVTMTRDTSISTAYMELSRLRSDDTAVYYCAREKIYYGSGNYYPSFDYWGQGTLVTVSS VL: DIQLTQSPSFLSASVGDRVTITCRASQGISSYLAWYQQKPGKAPKLLIYAASTLQSGVPSRFSGSGSGTEFTLTISSLQPEDFATYYCQQLASYPWTFGQGTKVEIKR
Data returned: 0.356

Data request: Another: PR006511 (antibody, human IgG1, kappa, V domains shown, PR003379 variant L:S93N; human IgG1 L234A, L235A, G237A) VH: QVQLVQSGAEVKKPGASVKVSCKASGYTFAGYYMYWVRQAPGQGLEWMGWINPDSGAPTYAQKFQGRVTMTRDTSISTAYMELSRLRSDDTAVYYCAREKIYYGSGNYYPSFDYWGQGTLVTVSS VL: DIQLTQSPSFLSASVGDRVTITCRASQGISSYLAWYQQKPGKAPKLLIYAASTLQSGVPSRFSGSGSGTEFTLTISSLQPEDFATYYCQQLNNYPWTFGQGTKVEIKR
Data returned: 0.386

Data request: Another: PR006504 (antibody, human IgG1, kappa, V domains shown, PR003379 variant L:N92V; human IgG1 L234A, L235A, G237A) VH: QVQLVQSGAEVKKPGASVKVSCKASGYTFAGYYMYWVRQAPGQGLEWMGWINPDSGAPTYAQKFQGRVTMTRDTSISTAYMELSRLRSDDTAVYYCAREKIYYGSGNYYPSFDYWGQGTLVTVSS VL: DIQLTQSPSFLSASVGDRVTITCRASQGISSYLAWYQQKPGKAPKLLIYAASTLQSGVPSRFSGSGSGTEFTLTISSLQPEDFATYYCQQLVSYPWTFGQGTKVEIKR
Data returned: 0.35

Data request: Another: PR006506 (antibody, human IgG1, kappa, V domains shown, PR003379 variant L:S93F; human IgG1 L234A, L235A, G237A) VH: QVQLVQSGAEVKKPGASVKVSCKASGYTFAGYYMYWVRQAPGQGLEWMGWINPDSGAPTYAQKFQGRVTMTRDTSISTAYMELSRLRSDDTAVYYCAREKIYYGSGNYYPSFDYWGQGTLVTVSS VL: DIQLTQSPSFLSASVGDRVTITCRASQGISSYLAWYQQKPGKAPKLLIYAASTLQSGVPSRFSGSGSGTEFTLTISSLQPEDFATYYCQQLNFYPWTFGQGTKVEIKR
Data returned: 0.388
